Quick reference for TGI among some compounds
# Test system: UACC-257 melanoma
# METHOD NOTES: NCI tumour cell line growth inhibition, 48 h

# COMPOUND, TGI
rows = [
    ("C1CN2N3CCCC23C1 (stereo not drawn)", "> 100 µM"),
    ("O=C1c2ccccc2C(=O)c2c1ccc1[nH]c(CCl)nc21", "15.1 µM"),
    ("CC(=O)OCC1OC(n2c(=S)[nH]c(-c3ccccc3)c(C#N)c2=O)C(OC(C)=O)C(OC(C)=O)C1OC(C)=O (stereo not drawn)", "> 100 µM"),
]

Next compound, please.
Task: If you can, please state the reported TGI value of `Cc1cccc(N(CCC#N)S(=O)(=O)c2ccccc2)c1` .
Result: > 100 µM

* * *

Quick reference for TGI among some molecules
# Tested on: SF-539 CNS
# METHOD NOTES: NCI tumour cell line growth inhibition, 48 h

# MOLECULE, TGI
data = [
    ("COc1ccc(CNc2nc3ccc(C(F)(F)F)cc3nc2-c2ccccc2)cc1OC", "> 100 µM"),
    ("O=c1nc2c(c(-c3cccc(Cl)c3)[nH]1)COC/C2=C\\c1cccc(Cl)c1", "> 100 µM"),
    ("CC(C)=CC1C(C(=O)O)C1(C)C (configuration not stated)", "> 750 µM"),
    ("O=C(CCc1ccc(O)cc1)c1c(O)cc(O)cc1OC1OC(CO)C(O)C(O)C1O (configuration not stated)", "> 100 µM"),
]

Task: If you can, please state the reported TGI value of `c1ccc(N=c2snc(-c3ccccc3)s2)cc1` .
Result: > 100 µM

Task: Do the same for `NNC(=O)c1cnn(-c2ccnc3c(C(F)(F)F)cccc23)c1N` please
Result: > 100 µM

Task: Do the same for `O=C(O)/C=C/C(=O)Nc1ncn[nH]1` please
Result: > 100 µM

Task: Do the same for `O=C(OCc1ccccc1)OOC(=O)OCc1ccccc1` please
Result: > 100 µM

Task: Do the same for `CCOC(=O)c1cnc2[nH]ccn2c1=O` please
Result: > 10 µM

Task: Do the same for `CNC(=O)c1cc(Oc2ccc3c(c2)sc2nc(-c4ccc(N)cc4)cn23)ccn1` please
Result: > 100 µM

Task: Do the same for `Cc1oc2nc(N(C)C)n3nnnc3c2c1C` please
Result: > 100 µM

Task: Do the same for COc1cc2c(cc1OC)C1C=NC(C(=O)O)(C2)c2ccccc21 (configuration not stated) please
Result: > 100 µM

* * *

# Tested on: SN12C renal
# METHOD NOTES: NCI tumour cell line growth inhibition, 48 h
ASSAY METRIC: TGI

# MOLECULE, TGI
rows = [
    ("Cc1cccc(N(CCC#N)S(=O)(=O)c2ccccc2)c1", "> 100 µM"),
    ("COc1cc([C@@H]2c3cc4c(cc3[C@@H](NC(=O)c3cccc([N+](=O)[O-])c3)C3COC(=O)[C@@H]32)OCO4)cc(OC)c1O (stereo partly specified)", "1.49 µM"),
    ("O=C(O)/C=C/C(=O)Nc1ncn[nH]1", "> 100 µM"),
]

Task: If you can, please state the reported TGI value of `O=C1/C(=C/c2ccc(F)cc2)CNC/C1=C\c1ccc(F)cc1` .
Result: 6.71 µM

Task: Do the same for `O=C(/C=C/c1cccs1)c1ccc(Cl)cc1` please
Result: > 100 µM

Task: Do the same for c1ccc2c(c1)CCCN1CCc3ccccc3C21 (stereo unspecified) please
Result: > 100 µM

Task: Do the same for `Cc1nc2ccc([N+](=O)[O-])cc2c(=O)n1C(=S)Nc1cccc(Cl)c1` please
Result: 51.4 µM

Task: Do the same for `Cc1cc(C)nc(NS(=O)(=O)c2ccc(NC(=O)c3cccc4c(=O)c5ccccc5[nH]c34)cc2)n1` please
Result: 32.8 µM

Task: Do the same for `CN(C)c1ccc(/C(Br)=C2\OC(=O)c3ccccc32)cc1` please
Result: > 100 µM

Task: Do the same for C=CCCCC12CCCc3cccc(c31)NC2=O (stereo unspecified) please
Result: > 100 µM

Task: Do the same for COc1cccc(C2c3cc4c(cc3OC(N3CCCC3)C2C)OCO4)c1OC (stereo unspecified) please
Result: 14.5 µM

Task: Do the same for `CN(C)c1ccc2c(c1)oc(=O)c1ccccc12` please
Result: 25.8 µM

Task: Do the same for `S=C1NCCN1C1=Nc2ccccc2CO1` please
Result: > 100 µM

Task: Do the same for `COc1cccc(-c2nc(-c3cnccn3)n(Cc3ccccc3)n2)c1` please
Result: > 100 µM

Task: Do the same for `Cc1nc2nnc(C)n2c2c1C(=O)Nc1ccccc1N2` please
Result: > 100 µM

Task: Do the same for `O=C(O/N=C1/CCC/C1=C\c1ccccc1)c1ccc([N+](=O)[O-])cc1` please
Result: > 100 µM

Task: Do the same for `N#Cc1nc(-c2ccc(F)cc2)oc1S(=O)(=O)N1CCOCC1` please
Result: 4.1 µM

Task: Do the same for `CCOP(=O)(OCC)/C(F)=C/c1ccccc1` please
Result: > 100 µM

Task: Do the same for `C#CC(C)(C)Oc1cc(O)c2c(=O)c3ccccc3n(C)c2c1` please
Result: > 100 µM

Task: Do the same for OC(c1cccc(C(F)(F)F)c1)c1cnccc1NC1CCCCCC1 (stereo unspecified) please
Result: 4.08 µM

Task: Do the same for `CC(C)/C(Cl)=N\OC(=O)NNc1ccccc1` please
Result: > 74.7 µM

* * *

# System: HL-60(TB) leukemia
# METHOD NOTES: NCI tumour cell line growth inhibition, 48 h
ASSAY METRIC: TGI

# COMPOUND, ASSAY METRIC, RESULT
measured = [
    ("CN=C1NC(=O)/C(=C/c2ccc3ncccc3c2)S1", "TGI", "> 25 µM"),
    ("CC(=O)OCC1OC(n2c(=S)[nH]c(-c3ccccc3)c(C#N)c2=O)C(OC(C)=O)C(OC(C)=O)C1OC(C)=O (stereo not drawn)", "TGI", "> 100 µM"),
]

Next compound, please.
Task: If you can, please state the reported TGI value of O=S(=O)(O)C(O)/C=C/c1ccccc1 (stereo not drawn) .
Result: > 100 µM

* * *

# System: BT-549 breast
# METHOD NOTES: NCI tumour cell line growth inhibition, 48 h
Quick reference for TGI among some compounds

As a guide, the following entries are already answered.
# COMPOUND, TGI
records = [
    ("CN=C1NC(=O)/C(=C/c2ccc3ncccc3c2)S1", "> 23 µM"),
    ("Clc1ccc(Cc2nc3cc4ccccc4cc3[nH]2)cc1", "> 100 µM"),
    ("O=C(O)c1ccc(NS(=O)(=O)Cc2ccccc2)cc1", "> 100 µM"),
    ("CCOc1ccc2nc(NC(=O)/C(CC(=O)CC(C3=C(O)c4ccccc4CC3=O)c3ccccc3)=N\\O)sc2c1 (stereo unspecified)", "> 100 µM"),
    ("COC(c1ccc(C(C)(C)C)cc1)(c1ccc(C(C)(C)C)cc1)c1cc(C(O)(c2cc(C(OC)(c3ccc(C(C)(C)C)cc3)c3ccc(C(C)(C)C)cc3)c(C)cc2C)c2cc(C(OC)(c3ccc(C(C)(C)C)cc3)c3ccc(C(C)(C)C)cc3)c(C)cc2C)c(C)cc1C", "> 100 µM"),
]

Task: If you can, please state the reported TGI value of CC(C)(CO)N1C(=O)c2ccccc2C1(O)c1ccc(Cl)cc1 (stereo unspecified) .
Result: > 100 µM

Task: Do the same for `ClCc1ccccc1CSc1ncnc2nc[nH]c12` please
Result: > 60 µM

Task: Do the same for `Cc1ccc(C(=O)Nc2ccc(CP(=O)(O)O)cc2)cc1NC(=O)c1cccc(NC(=O)Nc2cccc(C(=O)Nc3cc(C(=O)Nc4ccc(CP(=O)(O)O)cc4)ccc3C)c2)c1` please
Result: > 100 µM

Task: Do the same for `C=CC/C(C(=O)OC)=C(/C(=O)OC)N(CCC)CCC` please
Result: > 100 µM

Task: Do the same for `NS(=O)(=O)c1ccc(-n2nc(-c3ccc(Br)cc3)ccc2=O)cc1` please
Result: > 10 µM

Task: Do the same for `CCOC(=O)c1cnc2[nH]ccn2c1=O` please
Result: > 10 µM

* * *

Quick reference for TGI among some compounds
# Test system: CAKI-1 renal
# METHOD NOTES: NCI tumour cell line growth inhibition, 48 h
Lab book: enter the figure in µM, no units written.

# COMPOUND, TARGET OR TEST SYSTEM, TGI (µM)
measured = [
    ("O=C1/C(=C/c2ccc(Br)s2)NC(=S)N1CN1CCOCC1", "CAKI-1 renal", 66.5),
    ("O=C1C(Br)=Cc2c(Cl)sc(Cl)c21", "CAKI-1 renal", 8.99),
    ("COc1cc([C@@H]2c3cc4c(cc3[C@@H](NC(=O)c3cccc([N+](=O)[O-])c3)C3COC(=O)[C@@H]32)OCO4)cc(OC)c1O (some centres not stated)", "CAKI-1 renal", 4.31),
    ("CN1CCN(Cc2ccc(NC(=O)c3cncc(C#Cc4cnc(N)c5ccccc45)c3)cc2C(F)(F)F)CC1", "CAKI-1 renal", 0.7),
]

Next compound, please.
Task: // lookup TGI | system=CAKI-1 renal | key= `C[Si](C)(C)c1ccc(CC2(Cc3ccc([Si](C)(C)C)cc3)CCNC2)cc1`
Result: 5.29
